- PROTOCOL: yeast display, Sf9 membrane polyspecificity reagent, FACS + sequencing; frameworks hold sequencing errors

{"columns": ["RESIDUE_SEQUENCE", "polyreactivity (PSR sort gate)"],
 "data": [
  ["QVQLVESGGGLVQAGGSLRLSCAASGFIFYQYAMGWYRQAPGKERELVAAISTRGGSTYYADSVKGRFTISRDNAKNTVYLQMNSLKPEDTAVYYCAATVNARRVTRRYYWGQGTQVTVSS", "high polyreactivity"],
  ["QVQLVESGGGLVQAGGSLRLSCAASGGIFGDYAMGWYRQEPGKERELVAAINSGDSTNYADSVKGRFTISRDNAKNTVYLQMNSLKPEDTAVYYCNARGYWVYYVEYDYWGQGTQVTVSS", "low polyreactivity"],
  ["QVQLVESGGGLVQAGGSLRLSCAASGSTFFFNAMGWYRQAPGKERELVASITDTSGRTYYADSVKGRFTISRDNAKNTVYLHMNSLKPEDTAVYYCDKDFDQGGREMDYWGQGTQVTVSS", "low polyreactivity"],
  ["QVQLVESGGGLVQAGGSLRLICAASGRTLSGYAMGWYRQAPGKERELVAAISSDGRTYYADSVKGRFTISRDNAKNTVYLQMNSLKPEDTAVYYCAKVRRGSYGYWGQGTQVTVSS", "high polyreactivity"],
  ["QVQLVESGGGLVQAGGSLRLSCAASGGIFAWYAMGWYRQAPGKERELVAAIDHSGGSTYYADSVKGRFTISRDNAKNTVYLQMNSLKPEDTAVYYCNAGYYGYWEKYDYWGQGTQVTVSS", "low polyreactivity"]
]}
